- Target Entity: human N-type Ca channel (Homo sapiens, UniProt Q00975)
- Sequence (Q00975 whole entry): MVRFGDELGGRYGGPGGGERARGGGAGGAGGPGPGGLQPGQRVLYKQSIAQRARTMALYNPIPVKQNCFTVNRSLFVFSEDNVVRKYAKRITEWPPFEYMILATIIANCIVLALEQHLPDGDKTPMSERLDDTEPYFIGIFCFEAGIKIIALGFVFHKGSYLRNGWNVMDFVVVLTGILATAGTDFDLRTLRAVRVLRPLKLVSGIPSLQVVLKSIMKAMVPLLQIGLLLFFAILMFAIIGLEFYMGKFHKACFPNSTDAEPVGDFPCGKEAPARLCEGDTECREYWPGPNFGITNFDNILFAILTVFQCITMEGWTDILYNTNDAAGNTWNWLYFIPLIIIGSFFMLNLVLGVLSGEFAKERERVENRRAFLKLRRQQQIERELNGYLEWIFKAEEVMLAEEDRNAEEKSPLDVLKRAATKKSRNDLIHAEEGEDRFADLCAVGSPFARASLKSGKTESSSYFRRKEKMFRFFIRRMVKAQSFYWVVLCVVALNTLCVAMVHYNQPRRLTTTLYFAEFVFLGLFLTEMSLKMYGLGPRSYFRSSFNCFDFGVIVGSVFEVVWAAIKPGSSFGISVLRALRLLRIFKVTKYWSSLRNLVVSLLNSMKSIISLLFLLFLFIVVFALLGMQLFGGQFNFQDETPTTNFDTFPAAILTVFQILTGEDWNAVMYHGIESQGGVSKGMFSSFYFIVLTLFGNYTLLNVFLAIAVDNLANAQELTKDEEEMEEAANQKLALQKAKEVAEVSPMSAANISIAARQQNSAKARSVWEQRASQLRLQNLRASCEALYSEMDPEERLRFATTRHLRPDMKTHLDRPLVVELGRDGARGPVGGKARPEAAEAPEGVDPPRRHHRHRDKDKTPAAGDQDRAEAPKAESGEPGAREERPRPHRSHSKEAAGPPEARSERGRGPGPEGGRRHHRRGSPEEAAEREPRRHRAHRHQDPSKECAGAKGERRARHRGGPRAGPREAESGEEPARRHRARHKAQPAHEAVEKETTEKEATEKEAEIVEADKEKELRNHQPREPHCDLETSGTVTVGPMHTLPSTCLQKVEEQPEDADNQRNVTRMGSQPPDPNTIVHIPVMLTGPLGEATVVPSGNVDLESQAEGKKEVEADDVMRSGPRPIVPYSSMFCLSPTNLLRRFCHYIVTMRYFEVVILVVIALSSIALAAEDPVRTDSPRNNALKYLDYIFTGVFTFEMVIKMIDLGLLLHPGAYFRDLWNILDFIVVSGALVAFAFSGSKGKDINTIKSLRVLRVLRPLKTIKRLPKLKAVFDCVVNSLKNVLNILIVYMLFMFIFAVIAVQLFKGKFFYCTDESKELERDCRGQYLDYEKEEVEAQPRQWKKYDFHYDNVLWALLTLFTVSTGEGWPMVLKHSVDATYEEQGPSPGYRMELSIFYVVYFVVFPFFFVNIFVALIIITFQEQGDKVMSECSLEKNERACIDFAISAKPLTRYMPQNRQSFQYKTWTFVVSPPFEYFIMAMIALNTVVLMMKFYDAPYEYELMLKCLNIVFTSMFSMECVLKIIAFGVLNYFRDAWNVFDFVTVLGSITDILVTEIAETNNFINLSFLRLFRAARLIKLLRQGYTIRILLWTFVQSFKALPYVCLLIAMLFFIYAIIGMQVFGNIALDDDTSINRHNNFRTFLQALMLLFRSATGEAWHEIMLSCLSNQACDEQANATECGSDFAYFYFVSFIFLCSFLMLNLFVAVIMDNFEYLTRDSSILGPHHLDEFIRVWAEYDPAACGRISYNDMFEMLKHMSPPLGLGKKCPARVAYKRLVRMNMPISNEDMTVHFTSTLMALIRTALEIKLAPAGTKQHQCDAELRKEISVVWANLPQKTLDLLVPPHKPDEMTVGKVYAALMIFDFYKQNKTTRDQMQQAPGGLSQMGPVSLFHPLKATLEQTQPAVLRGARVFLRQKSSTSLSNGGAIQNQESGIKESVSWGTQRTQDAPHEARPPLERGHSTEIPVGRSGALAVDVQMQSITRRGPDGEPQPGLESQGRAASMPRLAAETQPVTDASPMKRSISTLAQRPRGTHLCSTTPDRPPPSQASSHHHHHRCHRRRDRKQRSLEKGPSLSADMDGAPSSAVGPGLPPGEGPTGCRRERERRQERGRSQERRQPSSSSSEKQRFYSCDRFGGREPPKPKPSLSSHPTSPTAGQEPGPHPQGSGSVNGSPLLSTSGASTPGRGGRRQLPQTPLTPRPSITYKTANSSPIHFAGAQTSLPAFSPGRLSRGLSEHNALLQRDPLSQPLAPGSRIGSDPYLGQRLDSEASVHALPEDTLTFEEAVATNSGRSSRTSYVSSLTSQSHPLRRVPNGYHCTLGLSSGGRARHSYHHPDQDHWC
- Sequence (P54284 whole entry partner): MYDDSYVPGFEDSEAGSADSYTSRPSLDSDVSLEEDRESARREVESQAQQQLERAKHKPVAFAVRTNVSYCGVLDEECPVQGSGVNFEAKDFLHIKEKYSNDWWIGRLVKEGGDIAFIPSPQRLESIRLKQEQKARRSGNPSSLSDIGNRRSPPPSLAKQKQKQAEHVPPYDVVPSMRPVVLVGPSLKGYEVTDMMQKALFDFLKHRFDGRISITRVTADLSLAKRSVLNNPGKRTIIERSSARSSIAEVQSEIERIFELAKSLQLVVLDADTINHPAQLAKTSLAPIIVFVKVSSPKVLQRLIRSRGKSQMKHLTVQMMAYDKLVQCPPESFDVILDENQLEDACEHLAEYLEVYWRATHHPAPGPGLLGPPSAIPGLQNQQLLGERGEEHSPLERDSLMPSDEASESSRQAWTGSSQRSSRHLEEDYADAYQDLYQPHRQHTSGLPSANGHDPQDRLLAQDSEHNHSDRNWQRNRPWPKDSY
- Sequence (P54289 25-956 partner limits assumed): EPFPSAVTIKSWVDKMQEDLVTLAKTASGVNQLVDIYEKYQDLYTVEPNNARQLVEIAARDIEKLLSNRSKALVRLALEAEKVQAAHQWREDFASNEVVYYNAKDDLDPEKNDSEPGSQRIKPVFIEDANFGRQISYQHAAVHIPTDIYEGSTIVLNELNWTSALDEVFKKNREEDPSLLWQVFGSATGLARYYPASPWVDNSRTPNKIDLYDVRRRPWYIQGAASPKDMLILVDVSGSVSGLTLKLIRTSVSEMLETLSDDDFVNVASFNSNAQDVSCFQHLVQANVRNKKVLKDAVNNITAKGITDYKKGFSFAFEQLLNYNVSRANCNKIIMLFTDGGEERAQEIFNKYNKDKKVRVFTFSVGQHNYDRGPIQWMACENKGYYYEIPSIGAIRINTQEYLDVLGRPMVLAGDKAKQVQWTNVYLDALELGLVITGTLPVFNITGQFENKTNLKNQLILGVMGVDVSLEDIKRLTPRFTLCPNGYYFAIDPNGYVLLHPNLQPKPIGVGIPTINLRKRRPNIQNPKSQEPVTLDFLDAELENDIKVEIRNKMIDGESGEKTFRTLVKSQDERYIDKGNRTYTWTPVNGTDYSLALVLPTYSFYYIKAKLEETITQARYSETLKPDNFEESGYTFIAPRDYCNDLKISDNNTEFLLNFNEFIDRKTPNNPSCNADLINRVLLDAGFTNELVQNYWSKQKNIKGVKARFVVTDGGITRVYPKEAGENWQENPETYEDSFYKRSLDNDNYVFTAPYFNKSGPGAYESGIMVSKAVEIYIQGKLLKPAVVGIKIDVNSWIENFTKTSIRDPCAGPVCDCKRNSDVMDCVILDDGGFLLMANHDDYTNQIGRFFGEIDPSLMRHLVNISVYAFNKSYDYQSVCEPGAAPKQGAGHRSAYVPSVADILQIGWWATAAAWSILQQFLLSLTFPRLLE
- Sequence (P54289 957-1103 partner limits assumed): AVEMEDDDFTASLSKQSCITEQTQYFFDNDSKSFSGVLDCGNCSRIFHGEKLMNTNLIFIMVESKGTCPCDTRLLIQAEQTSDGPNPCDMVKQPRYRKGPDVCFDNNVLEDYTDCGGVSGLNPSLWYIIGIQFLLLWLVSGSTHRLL
- Method Description: Electrophysiological response, QPatch (depolarization -80 mV to +20 mV)
- Condition Context: N Type IC50 Data Qpatch Pulse=1, Pulse=1; concentration range 0.01-1 µM
Outcome Measure: IC50 (nM)

1: COc1ccccc1-c1nc(C2CC(C)(C)OC(C)(C)C2)cn1-c1ccc(C)c(C#N)c1
2: COc1ncccc1-c1nc(C2CC(C)(C)OC(C)(C)C2)cn1-c1cc(F)ccc1F
Which has the smaller recorded IC50, 1 or 2 ? Answer by stating the label of the chosen item.
1
(1: 590 nM, 2: 5830 nM)

---

- Target Entity: human N-type Ca channel (Homo sapiens, UniProt Q00975)
- Method Description: Electrophysiological response, QPatch (depolarization -80 mV to +20 mV)
- Condition Context: read-out: Qpatch Pulse=15 (percent inhibition)
Outcome Measure: inhibition at 10 µM (%)

| Compound | Target Entity | inhibition at 10 µM / % |
| --- | --- | --- |
| COc1ncccc1-c1nc(C2CC(C)(C)OC(C)(C)C2)cn1-c1ccc(Cl)cc1 [Compound 11] | human N-type Ca channel (Homo sapiens, UniProt Q00975) | 21 |

a: COc1ncccc1-c1nc(C2(O)CC(C)(C)OC(C)(C)C2)cn1-c1ccc(F)c(Cl)c1 [Compound 110]
b: COc1ncccc1-c1nc(C2CC(C)(C)OC(C)(C)C2)c(Cl)n1-c1ccc(C#N)cc1 [Compound 91]
Which has the smaller recorded inhibition at 10 µM, a or b ? Answer by stating the label of the chosen item.
a

---

- Target Entity: human N-type Ca channel (Homo sapiens, UniProt Q00975)
- Method Description: Electrophysiological response, QPatch (depolarization -80 mV to +20 mV)
- Condition Context: N Type IC50 Data Qpatch Pulse=1, Pulse=1; concentration range 0.01-1 µM
pIC50: −log10 of the molar value.
Outcome Measure: pIC50

Worked cases, pIC50 given:
| Compound | Outcome Measure | Reported Result |
| --- | --- | --- |
| CCOc1ncccc1-c1nc(C2(O)CC(C)(C)OC(C)(C)C2)cn1-c1ccc(Cl)cc1 [Compound 114] | pIC50 | 6.18 |
| CCOc1ncccc1-c1nc(C2CC(C)(C)OC(C)(C)C2)cn1-c1ccc(F)c(F)c1 [Compound 52] | pIC50 | 6.14 |

I: COc1ccccc1-c1nc(C2CC(C)(C)OC(C)(C)C2)cn1-c1ccc(C#N)c(C)c1 [Compound 21]
II: COc1ncccc1-c1nc(C2CC(C)(C)OC(C)(C)C2)cn1-c1cccc(C#N)c1 [Compound 48]
Which has the smaller recorded pIC50, I or II ? Answer by stating the label of the chosen item.
I
(I: 6.19, II: 6.65)

---

- Target Entity: human N-type Ca channel (Homo sapiens, UniProt Q00975)
- Method Description: Electrophysiological response, QPatch (depolarization -80 mV to +20 mV)
- Condition Context: N Type IC50 Data Qpatch Pulse=1, Pulse=1; concentration range 0.01-0.3 µM
pIC50: −log10 of the molar value.
Outcome Measure: pIC50

Worked cases, pIC50 given:
| Chemical Smiles | pIC50 |
| --- | --- |
| CCOc1ncccc1-c1nc(C2CC(C)(C)OC(C)(C)C2)cn1-c1ccc(C#N)c(F)c1 | 6.29 |
| CCOc1nccnc1-c1nc(C2CC(C)(C)OC(C)(C)C2)cn1-c1ccc(Cl)cc1 | 6.61 |

a: COc1nccnc1-c1nc(C2CC(C)(C)OC(C)(C)C2)cn1-c1ccc(C#N)c(F)c1
b: COc1ncccc1-c1nc(C2CC(C)(C)OC(C)(C)C2)cn1-c1cccc(F)c1F
c: COc1ccccc1-c1nc(C2CC(C)(C)OC(C)(C)C2)cn1-c1ccc(OC(F)F)cc1
List the 3 entries from lowest pIC50 to highest pIC50 value. Please list the labels in the order you were asked to rank them.
b, c, a

---

- Target Entity: human N-type Ca channel (Homo sapiens)
- Method Description: Electrophysiological response, QPatch (depolarization -80 mV to +20 mV)
- Condition Context: N Type IC50 Data Qpatch Pulse=15, Pulse=15; concentration range 0.3-10 µM
Outcome Measure: IC50 (nM)

| Compound | IC50 (nM) |
| --- | --- |
| COc1ccccc1-c1nc(C2CC(C)(C)OC(C)(C)C2)cn1-c1ccc(F)c(Br)c1 [Compound 63] | 3500 |

A: COc1ncccc1-c1nc(C2CC(C)(C)OC(C)(C)C2)cn1-c1ccc(F)c(C#N)c1 [Compound 79]
B: COc1ccccc1-c1nc(C2CC(C)(C)OC(C)(C)C2)cn1-c1ccc(F)c(F)c1 [Compound 42]
C: COc1ccccc1-c1nc(C2=CC(C)(C)OC(C)(C)C2)cn1-c1ccc(Cl)cc1 [Compound 124]
Order the records by IC50, with each subsequent value no larger than the one before. Please list the labels in the order you were asked to rank them.
A, C, B

---

- Target Entity: human N-type Ca channel (Homo sapiens)
- Method Description: Calcium influx assay (FDSS), KCl depolarization, Fluo8 dye
- Type: cell-based
- Set-up: host or cells: HEK 293
- Condition Context: HEK 293 cells expressing human N-type Ca channel; 100 mM KCl; read-out: N Type IC50 Data FDSS
Outcome Measure: IC50 (µM)

a: COc1ncccc1-c1nc(C2CC(C)(C)OC(C)(C)C2)cn1-c1cc(F)c(C#N)c(F)c1 [Compound 82]
b: COc1ccccc1-c1nc(C2CC(C)(C)OC(C)(C)C2)cn1-c1ccc(C)nc1 [Compound 5]
c: COc1ccccc1-c1nc(C2CC(C)(C)OC(C)(C)C2)cn1S(=O)(=O)c1ccc(Cl)cc1 [Compound 97]
Arrange the above in rising order of IC50. Please list the labels in the order you were asked to rank them.
b, c, a

---

- Target Entity: human N-type Ca channel (Homo sapiens, UniProt Q00975)
- Method Description: Calcium influx assay (FDSS), KCl depolarization, Fluo8 dye
- Format: cell-based
- Design: host or cells: HEK 293
- Condition Context: HEK 293 cells expressing human N-type Ca channel; 100 mM KCl; read-out: N Type IC50 Data FDSS
pIC50: −log10 of the molar value.
Outcome Measure: pIC50

1: COc1ncncc1-c1nc(C2CC(C)(C)OC(C)(C)C2)cn1-c1ccc(Cl)cc1 [Compound 49]
2: COc1nccnc1-c1nc(C2CC(C)(C)OC(C)(C)C2)cn1-c1ccc(C#N)cc1 [Compound 87]
3: COc1ncccc1-c1nc(C2CC(C)(C)OC(C)(C)C2)cn1-c1cc(F)ccc1F [Compound 71]
4: COc1ncccc1-c1nc(C2CC(C)(C)OC(C)(C)C2)cn1-c1ccc(Br)c(F)c1 [Compound 65]
Reorder: pIC50, max to min. Please list the labels in the order you were asked to rank them.
1, 4, 3, 2

---

- Target Entity: human N-type Ca channel (Homo sapiens, UniProt Q00975)
- Method Description: Calcium influx assay (FDSS), KCl depolarization, Fluo8 dye
- Assay type: cell-based
- Design: host or cells: HEK 293
- Condition Context: HEK 293 cells expressing human N-type Ca channel; 100 mM KCl; read-out: N Type IC50 Data FDSS
Outcome Measure: IC50 (nM)

| Chemical Smiles | Units Of Measure | IC50 |
| --- | --- | --- |
| COc1ccccc1-c1nc(C2CC(C)(C)OC(C)(C)C2)cn1-c1cccc(C#N)c1 | nM | 278 |
| COc1ncccc1-c1nc(C2CC(C)(C)OC(C)(C)C2)cn1-c1ccc(C#N)c(Cl)c1 | nM | 234 |
| COc1ncccc1-c1nc(C2CC(C)(C)OC(C)(C)C2)cn1-c1ccc(C#N)c(C(F)(F)F)c1 | nM | 492 |
| CC1(C)CC(c2cn(-c3ccc(Cl)cc3)c(CC3CC3)n2)CC(C)(C)O1 | nM | 384 |
| COc1ncccc1-c1nc(C2CC(C)(C)OC(C)(C)C2)cn1-c1cccc(F)c1F | nM | 769 |
| COc1ncccc1-c1nc(C2(O)CC(C)(C)OC(C)(C)C2)cn1-c1ccc(F)c(Cl)c1 | nM | 385 |
| COc1ncccc1-c1nc(C2CC(C)(C)OC(C)(C)C2)c(Cl)n1-c1ccc(C#N)cc1 | nM | 1430 |
| COc1ccncc1-c1nc(C2CC(C)(C)OC(C)(C)C2)cn1-c1ccc(Cl)cc1 | nM | 109 |
| COc1ncccc1-c1nc(C2CC(C)(C)OC(C)(C)C2)cn1-c1ccc(C#N)cc1 | nM | 291 |
| COc1ncccc1-c1nc(C2CC(C)(C)OC(C)(C)C2)cn1-c1ccc(F)cc1 | nM | 401 |

a: COc1ncccc1-c1nc(C2CC(C)(C)OC(C)(C)C2)cn1-c1cccc(C#N)c1
b: COc1ccncc1-c1nc(C2(O)CC(C)(C)OC(C)(C)C2)cn1-c1ccc(Cl)cc1
Return label of the item with the larger IC50. Candidates: a , b . Answer by stating the label of the chosen item.
a
(a: 5410 nM, b: 367 nM)

a: COc1ncncc1-c1nc(C2CC(C)(C)OC(C)(C)C2)cn1-c1ccc(C#N)cc1
b: COc1ncccc1-c1nc(C2CC(C)(C)OC(C)(C)C2)cn1-c1ccc(F)cc1F
c: COc1ccccc1-c1nc(C2(O)CC(C)(C)OC(C)(C)C2)cn1-c1ccc(Cl)cc1
d: Cn1cnnc1-c1nc(C2CC(C)(C)OC(C)(C)C2)cn1-c1ccc(Cl)cc1
e: CCOc1ccc(-n2cc(C3CC(C)(C)OC(C)(C)C3)nc2-c2cccnc2OC)cn1
Order the records by IC50, with each subsequent value no larger than the one before. Please list the labels in the order you were asked to rank them.
d, e, a, b, c
(d: 5760 nM, e: 2060 nM, a: 1300 nM, b: 321 nM, c: 37 nM)

I: CCOc1nccnc1-c1nc(C2CC(C)(C)OC(C)(C)C2)cn1-c1ccc(Cl)cc1
II: COc1ccccc1-c1nc(C2CC(C)(C)OC(C)(C)C2)cn1-c1ccc(C#N)cc1F
Which has the smaller recorded IC50, I or II ? Answer by stating the label of the chosen item.
II
(II: 40 nM, I: 321 nM)

P: COc1ncccc1-c1nc(C2CC(C)(C)OC(C)(C)C2)cn1-c1ccc(Cl)c(C#N)c1
Q: COc1ccc(-n2cc(C3CC(C)(C)OC(C)(C)C3)nc2-c2ccccc2OC)cc1
R: COc1ccccc1-c1nc(C2CC(C)(C)OC(C)(C)C2)cn1-c1ccc(Cl)cn1
List the 3 entries from lowest IC50 to highest IC50 value. Please list the labels in the order you were asked to rank them.
Q, R, P
(Q: 113 nM, R: 163 nM, P: 362 nM)
